- System: TGF-β-stimulated SMAD3 phosphorylation in BEAS-2B cells
- Assay Protocol: Cellular ALK5 potency assay, inhibition of TGF-β stimulated pSMAD3 formation in BEAS-2B cells
- Type: cell-based
- Particulars: Homo sapiens, pSMAD3, TGF-β 10 ng/mL, read-out: BEAS2B pIC50 (converted)
Measurement Name: IC50

Use the examples below as a reference point.
molecule="Cc1cccc(-c2nccc(Nc3ccnc(Nc4ccc5c(c4)CCNCC5)n3)n2)n1 [Compound 160]" test_value="25.1 to 158 nM"
molecule="Cc1cccc(-c2nccc(Nc3ccnc(Nc4csc(C(=O)O[C@H]5CCN(C)C5)c4)n3)n2)n1 [Compound 217]" test_value="25.1 to 158 nM"
molecule="Cc1cccc(-c2nccc(Nc3ccnc(Nc4ccc(CN5CCC(C(=O)O[C@@H]6CCNC6)CC5)cc4)n3)n2)n1 [Compound 313]" test_value="25.1 to 158 nM"

# per-item lookup of IC50; items listed below
1. Cc1cccc(-c2nccc(Nc3ccnc(Nc4ccc(S(=O)(=O)NCCN)cc4)n3)n2)n1 [Compound 208]
2. Cc1cccc(-c2nccc(Nc3ccnc(Nc4ccc(C(=O)O[C@@H]5CCNC5)cn4)n3)n2)n1 [Compound 574]
3. Cc1cccc(-c2nccc(Nc3ccnc(Nc4cccc(NC(=O)N5CCNCC5)c4)n3)n2)n1 [Compound 298]
4. CC(=O)N1CCN(c2cccc(Nc3nccc(Nc4ccnc(-c5cccc(C)n5)n4)n3)c2)CC1 [Compound 190]

**A:**
≤ 20 nM
200 to 1260 nM
25.1 to 158 nM
25.1 to 158 nM

----------
Would you mind telling me the reported Ki of each entry?
- Target Or Test System: recombinant human ALK5 (TGF-βR1) protein (Homo sapiens, UniProt P36897)
- Sequence (P36897 34-503): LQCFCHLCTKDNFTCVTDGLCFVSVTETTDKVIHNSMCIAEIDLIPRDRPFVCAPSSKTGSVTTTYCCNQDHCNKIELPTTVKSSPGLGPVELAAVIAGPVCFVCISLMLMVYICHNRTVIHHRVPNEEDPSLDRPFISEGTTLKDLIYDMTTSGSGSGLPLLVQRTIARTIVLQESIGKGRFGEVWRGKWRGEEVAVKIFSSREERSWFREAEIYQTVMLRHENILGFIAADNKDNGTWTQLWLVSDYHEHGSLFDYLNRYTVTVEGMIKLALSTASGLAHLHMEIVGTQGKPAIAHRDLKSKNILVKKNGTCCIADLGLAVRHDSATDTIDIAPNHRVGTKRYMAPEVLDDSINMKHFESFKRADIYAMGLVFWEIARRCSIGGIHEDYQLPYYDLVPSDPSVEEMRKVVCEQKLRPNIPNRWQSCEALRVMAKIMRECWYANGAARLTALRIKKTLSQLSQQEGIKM
- Assay Protocol: Biochemical ALK5 (TGF-βR1) assay to measure pKi (LANCE Ultra ULight kinase assay)
- Particulars: apparent pKi, converted from pIC50 by Cheng-Prusoff
- Protocol: The assays were performed in a 384-well plate (24 columns×16 wells/rows). An Echo®550 Liquid Handler (Labcyte) was used to prepare various intermediate concentrations of compounds of the present disclosure in 100% DMSO. […] For dose-response analyses, percent inhibition versus compound concentrations were plotted, and pIC50 values were determined from a 4-parameter robust fit model with GraphPad Prism V5 Software (GraphPad Software, Inc., La Jolla, CA). […]

compound=Cc1cccc(-c2nccc(Nc3ccnc(Nc4ccc(C)c(NC(=O)C5CCNCC5)c4)n3)n2)n1 test_value="0.0398 to 0.316 nM"
compound=CN1CCN(C2CCN(c3ccc(Nc4nccc(Nc5ccnc(-c6cc(Cl)c(F)cc6F)n5)n4)cc3)CC2)CC1 test_value="0.0398 to 0.316 nM"
compound=Cc1cccc(-c2nccc(Nc3ccnc(Nc4cnn(CCN)c4)n3)n2)n1 test_value="0.0398 to 0.316 nM"
compound=Cc1cccc(-c2nccc(Nc3ccnc(Nc4cc(C(=O)N5CCNCC5)cs4)n3)n2)n1 test_value="0.0398 to 0.316 nM"
compound="COC(=O)C1CCCN(Cc2ccc(Nc3nccc(Nc4ccnc(-c5cccc(C)n5)n4)n3)cc2)C1 (stereo not shown)" test_value="0.0398 to 0.316 nM"
compound=Cc1cccc(-c2nccc(Nc3ccnc(Nc4ccc(N5CCNCC5)cn4)n3)n2)n1 test_value="0.398 to 3.16 nM"
compound=Cc1cccc(-c2nccc(Nc3ccnc(Nc4ccc(-c5cnn(C)c5)cc4)n3)n2)n1 test_value="0.398 to 3.16 nM"
compound=Cc1cccc(-c2nccc(Nc3ccnc(Nc4ccc(CN5CCCNCC5)cc4)n3)n2)n1 test_value="0.0398 to 0.316 nM"
compound=COc1cc(Nc2nccc(Nc3ccnc(-c4cccc(C)n4)n3)n2)ccc1NS(C)(=O)=O test_value="0.398 to 3.16 nM"
compound=Cc1cccc(-c2nccc(Nc3ccnc(Nc4ccc(N5CCC(C(=O)O[C@H]6CCNC6)CC5)cc4)n3)n2)n1 test_value="0.0398 to 0.316 nM"

# per-item lookup of Ki; items listed below
1. Cc1cccc(-c2nccc(Nc3ccnc(Nc4ccc(S(=O)(=O)N5CCN(C6CC6)CC5)cc4)n3)n2)n1
2. Cc1ccc(O)cc1-c1nccc(Nc2ccnc(Nc3ccc(N4CCOCC4)cc3)n2)n1
3. Cc1cccc(-c2nccc(Nc3ccnc(Nc4ccc(CN5CCCC(C(=O)O)C5)cc4)n3)n2)n1 (stereo not shown)
4. Cc1cccc(-c2ncc(C(=O)O)c(Nc3ccnc(Nc4ccc(N)cc4)n3)n2)n1
5. Cc1cccc(-c2nccc(Nc3ccnc(Nc4ccc(CN5C6CCC5CNC6)cc4)n3)n2)n1
6. Cc1cccc(-c2nccc(Nc3ccnc(Nc4cccc(NC(=O)C5CCCNC5)c4)n3)n2)n1 (stereo not shown)
7. Cc1cccc(-c2nccc(Nc3ccnc(Nc4ccc(NC(=O)C5CCN(CCN(C)C)CC5)cc4)n3)n2)n1
8. Cc1cccc(-c2nccc(Nc3ccnc(Nc4ccc(C(=O)OC[C@H]5CCNC5)nc4)n3)n2)n1

**A:**
1. 0.398 to 3.16 nM
2. 3.98 to 31.6 nM
3. 0.0398 to 0.316 nM
4. 0.398 to 3.16 nM
5. 0.0398 to 0.316 nM
6. 0.0398 to 0.316 nM
7. 0.0398 to 0.316 nM
8. 0.0398 to 0.316 nM

# per-item lookup of Ki; items listed below
1. Cc1cccc(-c2nccc(Nc3ccnc(Nc4ccc(CN5CC(OCCO)C5)cc4)n3)n2)n1
2. Cc1cccc(-c2nccc(Nc3ccnc(Nc4cccc(NC(=O)NC5CCNC5)c4)n3)n2)n1 (stereo not shown)
3. Cc1cccc(-c2nccc(Nc3ccnc(Nc4csc(C(=O)OC[C@@H]5CCC[C@H](N)C5)c4)n3)n2)n1
4. Cc1cccc(-c2nccc(Nc3ccnc(Nc4ccc(N5CCNCC5)c(CC(=O)OCC5CNC5)c4)n3)n2)n1
5. Cc1cccc(-c2nccc(Nc3ccnc(Nc4ccc(CN5CCC[C@H](C(=O)OCC6CN(C)C6)C5)cc4)n3)n2)n1
6. CNCc1ccc(Nc2nccc(Nc3ccnc(-c4cccc(C)n4)n3)n2)cc1
7. Cc1cccc(-c2nccc(Nc3ccnc(Nc4csc(N)c4)n3)n2)n1
8. Cc1cccc(-c2nccc(Nc3ccnc(Nc4cc(C(=O)O)ccn4)n3)n2)n1

**A:**
1: 0.0398 to 0.316 nM; 2: 0.0398 to 0.316 nM; 3: 0.0398 to 0.316 nM; 4: 0.0398 to 0.316 nM; 5: 0.0398 to 0.316 nM; 6: ≤ 0.0316 nM; 7: 0.398 to 3.16 nM; 8: 3.98 to 31.6 nM

# per-item lookup of Ki; items listed below
1. CN1CCN(C2CCN(c3ccc(Nc4nccc(Nc5ccnc(-c6cc(Cl)ccc6F)n5)n4)cc3)CC2)CC1
2. Cc1cccc(-c2nccc(Nc3ccnc(Nc4ccc(N5CCC(CNCc6ccccc6)CC5)cc4)n3)n2)n1
3. Cc1cccc(-c2nccc(Nc3ccnc(Nc4csc(C(=O)O[C@@H]5CCN(C)C5)c4)n3)n2)n1
4. CNCCN1CCN(c2ccc(Nc3nccc(Nc4ccnc(-c5cccc(C)n5)n4)n3)cc2)CC1
5. Cc1cccc(-c2nccc(Nc3ccnc(Nc4ccc(-c5cnn(CCN(C)C)c5)cc4)n3)n2)n1

**A:**
0.0398 to 0.316 nM
0.398 to 3.16 nM
0.0398 to 0.316 nM
0.0398 to 0.316 nM
0.0398 to 0.316 nM
